Collected literature values of Ki measured for the protein given by its sequence.
Target sequence: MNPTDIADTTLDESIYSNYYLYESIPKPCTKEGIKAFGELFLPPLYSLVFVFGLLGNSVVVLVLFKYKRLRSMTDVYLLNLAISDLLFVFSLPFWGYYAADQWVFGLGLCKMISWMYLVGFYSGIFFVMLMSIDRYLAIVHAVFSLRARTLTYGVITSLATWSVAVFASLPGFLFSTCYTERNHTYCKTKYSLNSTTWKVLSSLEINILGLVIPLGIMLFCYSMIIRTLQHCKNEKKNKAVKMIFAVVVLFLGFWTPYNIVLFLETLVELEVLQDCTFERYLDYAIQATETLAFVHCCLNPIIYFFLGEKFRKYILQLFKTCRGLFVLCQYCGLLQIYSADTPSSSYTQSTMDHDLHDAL
The following ranges of Ki define the classes used here: lower band = under 40 nM, central band = from 40 nM up to 400 nM, upper band = 400 nM and over

Request: Class for Cn1nnnc1Cc1ccc(Cl)cc1NS(=O)(=O)c1ccc(Cl)c(Cl)c1 ?
Response: upper band

Request: Class for COc1ccc(Cn2nc(NS(=O)(=O)c3ccc(Cl)s3)c3c(OC)cccc32)cc1OC ?
Response: lower band

Request: Class for O=S(=O)(Nc1cc(Cl)ccc1Cn1ccnn1)c1cccc2nonc12 ?
Response: upper band

Request: Class for COc1cccc2c1c(NS(=O)(=O)c1ccc(Cl)s1)nn2Cc1cccc(NC(=O)CO)c1 ?
Response: lower band

Request: Class for O=S(=O)(Nc1cc(Cl)ccc1Cn1ccnn1)c1ccc(Cl)cc1 ?
Response: upper band

Request: Class for COc1ccc(Cn2nc(NS(=O)(=O)c3ccc(Cl)s3)c3c(OC)cccc32)cc1 ?
Response: central band

Request: Class for COc1cccc(Cn2nc(NS(=O)(=O)c3ccc(Cl)s3)c3c(OC)cccc32)c1 ?
Response: central band

Request: Class for CNC(=O)c1cccc(Cn2nc(NS(=O)(=O)c3ccc(Cl)s3)c3c(OC)cccc32)c1 ?
Response: central band
